The compounds listed here are annotated with their TGI.
System: SF-268 CNS
Assay: NCI tumour cell line growth inhibition, 48 h
// note: answer is a bare numeric in µM

Cc1cccc(C(C)C)c1NC(=O)C(=O)C(C(=O)c1ccccc1F)C1OC(=O)c2ccccc21 (stereo not given) :: 92.9
OC1(c2ccc(Cl)cc2)c2ccc(CN3CCCC3)cc2C2=NCCN21 (stereo not given) :: 29.7
CCOC(=O)[C@@H]1ON2O[C@@H](OC3CCCC3(c3ccccc3)c3ccccc3)C[C@H]3OC(=O)[C@@H]1C32 (stereo not given in full) :: 70.2
O=C(CCCN1CCC2(CC1)C(=NC1CCCCC1)NC(=O)N2c1ccccc1)c1ccc(F)cc1 :: 40.1

Now look at this entry.
# input Recorded TGI of CC(C)C1=C2CCC3(C)C(CCC4C5C6OCC5(CCC6(C)C)CCC43C)C2(C)CC1 (stereo not given) , please.
# output 69.9

====

Test system: SNB-19 CNS
Experiment: NCI tumour cell line growth inhibition, 48 h
measured_quantity: TGI

For orientation, consider the following solved cases.
S=C1SC2=Nc3ccccc3CN2C2=NCCN12 :: > 100 µM
COC(=O)[C@H](Cc1ccccc1)NC(=O)c1ccc(CNC(=O)/C=C/c2cccc(Oc3ccccc3)c2)cc1 :: > 100 µM
O=C(O)CSC(NC(=O)C(C(F)(F)F)C(F)(F)F)(C(F)(F)F)C(F)(F)F :: > 100 µM

# input molecule: `O=C(c1ccccc1)N1C(=S)N=C(Nc2ccccc2)C1=Nc1ccccc1` ; wanted: its TGI
# output > 100 µM

# input Find the recorded TGI belonging to Nc1nc(N)c2cc(CNc3ccc(C(=O)NC(CC(=O)O)C(=O)O)c(Cl)c3)ccc2n1 (stereo unspecified) and report it.
# output > 500 µM

# input Would you mind telling me what TGI value was observed for `O=C(NO)c1ccc(CN(c2cnccn2)c2cnccn2)cc1` ?
# output 72.5 µM

# input Look at this molecule and give its reported TGI. `CCCCC/C(C=O)=C\c1ccccc1`
# output > 100 µM

# input Give the measured TGI of `Nc1ccc2nc3n(c2c1)C(=O)c1ccccc1-3` .
# output > 100 µM

# input # TGI lookup, item O=C1CCCc2cc3c(cc21)CC1(C3)Cc2ccc3c(c2C1)C(=O)CCC3 (stereo unspecified)
# output > 100 µM

# input Look up TGI: `CC[C@@]1(O)C(=O)OCc2c1cc1n(c2=O)Cc2c-1nc1cc(F)c(C)c3c1c2[C@@H](N)CC3`
# output > 100 µM

# input Dear colleague, I am looking for the recorded TGI of the following molecule: `O=[N+]([O-])c1ccc(CSCc2ccc(Cl)cc2)cc1`
# output > 100 µM

====

Test system: SK-MEL-5 melanoma
Assay: NCI tumour cell line growth inhibition, 48 h; in the data active = GI50 below about 0.43 µM; inactive = the rest
Write down the outcome that applies. Available outcomes: active, inactive

Worked set:
COc1ccc(Cc2cnc(NC(=O)c3ccc4c(c3)OCCO4)s2)cc1 :: active
O=c1oc2ccc(Br)cc2c(=O)n1-c1ccc(F)cc1F :: inactive
CCCCCc1ccc(S(=O)(=O)Nc2cc(-c3csc(NC(C)=O)n3)ccc2N2CCN(C)CC2)cc1 :: inactive

Here is another molecule to look at.
# input Hi, sorry to bother you, what did the test record for `COC(=O)c1cc(/C=C/c2ccc(S(N)(=O)=O)cc2)ccc1O` ?
# output inactive

====

System: SF-295 CNS
Test: NCI tumour cell line growth inhibition, 48 h
measured_quantity: TGI

Worked set:
O=c1[nH]c(=O)n([C@H]2CCCO2)cc1F :: > 5000 µM
CC(C)(C)OC(=O)N1N=NC2C1C1CC(OCc3ccccc3)(OCc3ccccc3)C2O1 (stereo not drawn) :: > 100 µM
O=C(OCC(OC(=O)c1ccccc1)C(OC(=O)c1ccccc1)C(OC(=O)c1ccccc1)c1cnn(-c2ccccc2)n1)c1ccccc1 (stereo not drawn) :: > 100 µM
CC1=C[C@@H](C)C[C@]2(C)CC[C@H](O2)[C@]23CC[C@](C(=O)O)(C[C@H](O2)[C@@H]2O[C@@](C)(CC2=O)[C@@H](O)[C@H]2CC[C@@]4(CCC[C@@H](O4)[C@H](C)C(=O)O[C@H]4C[C@H]([C@]5(O)OCC[C@H](C)[C@@H]5O)O[C@H]4C=C1)O2)O3 :: > 10 µM
Nc1nc(N)c2cc(CNc3ccc(C(=O)NC(CC(=O)O)C(=O)O)c(Cl)c3)ccc2n1 (stereo not drawn) :: > 500 µM
CCCCC#CS(=O)(=O)C(F)(F)F :: > 100 µM
COc1ccc(/C=C(/c2ccccc2)[N+](=O)[O-])cc1 :: 5.22 µM
O=C1c2cccc(NCCNCCO)c2C(=O)c2cccc(NCCNCCO)c21 :: 5.77 µM
COc1cc(CC(C)N)ccc1O (stereo not drawn) :: > 100 µM
COc1ccc(/C=N/N2C(=O)c3c(N)c(C#N)c(-c4ccccc4)c(-c4ccccc4)c3C2=O)cc1 :: > 100 µM

# input Look at this compound and give its reported TGI. CC1=CC(=O)C(C(O)(C(F)(F)F)C(F)(F)F)C(C)(C)C1 (stereo not drawn)
# output > 10 µM

# input Return reported TGI; argument: COc1cc2c(cc1OC)C13CC[N+]4(C)CC5=CCOC6CC(=O)N2C1C6C5CC34[O-] (stereo not drawn)
# output > 100 µM

# input Given the compound `O=C([CH-]C(=O)c1ccccc1)c1ccccc1.O=C([CH-]C(=O)c1ccccc1)c1ccccc1.[O]=[U+2]=[O]` , what is its reported TGI?
# output 4.29 µM

# input Fill in: TGI of `Cc1ncc([N+](=O)[O-])n1CCNS(=O)(=O)CCCn1ncnc1[N+](=O)[O-]` is ___
# output > 100 µM

====

System: SNB-75 CNS
Assay: NCI tumour cell line growth inhibition, 48 h
measured_quantity: TGI (µM)
Respond numerically; units are µM and should not be typed.

Examples from the recorded data:
O=C(NCc1ccc(S(=O)(=O)c2cc(F)cc(F)c2)cc1)c1ccc2nccn2c1 :: 45.8
COc1cc(CNc2nc3cc(C(F)(F)F)ccc3nc2-c2ccccc2)cc(OC)c1OC :: 44

Let us move to another entry and its TGI.
# input Which TGI is listed for `O=C(CCCN1CCC2(CC1)C(=NC1CCCCC1)NC(=O)N2c1ccccc1)c1ccc(F)cc1` ?
# output 56

====

Below, each entry is listed with its recorded TGI.
System: RPMI-8226 leukemia
Assay: NCI tumour cell line growth inhibition, 48 h
Report only the number, with the unit µM understood.

NC(=S)N/N=C/c1cc(-c2cccc(N)c2)ccn1 :: 28.7

# input Sample `COc1cc(C2C(C(=O)Nc3cc(F)c(F)cc3F)=C(C)NC(C)=C2C(=O)Nc2cc(F)c(F)cc2F)ccc1O` — what was its TGI?
# output 47.3

# input Need TGI of `CC/C=C/C/C=C/C/C=C/C/C=C/C/C=C/C/C=C/CCC(=O)Nc1ccn([C@@H]2O[C@H](CO)[C@@H](O)C2(F)F)c(=O)n1` , thanks.
# output 39

# input What does the data say about its TGI? Entry: `C=C1CC[C@@H](C(C)C)C[C@@H]2[C@H]([C@H](O)C[C@]2(C)O)[C@@]2(C)CC[C@@H]1O2`
# output 17.2

# input # lookup: TGI of COc1c(O)c(O)cc2c1-c1ccc(OC)c(=O)cc1C(NC(C)=O)CC2 (stereo unspecified)
# output 54.9

# input Request the reported TGI associated with `COC(=O)c1cccc2cccc(C(=O)Nc3ccc(Cl)cc3)c12`
# output 33.7

# input Quick one: TGI of `CCCCN(CCCC)C(=C(C(Cl)=C(Cl)Cl)[N+](=O)[O-])N(CCCC)CCCC` ?
# output 58.7

# input Any idea what TGI was measured for `CC(C)(C)OC(=O)n1c(-c2ccccc2F)cc(=O)c2cc3c(cc21)OCO3` ?
# output 20.7

# input So what does the record say about TGI for `COc1ccc(N=Nc2c3c(c(O)c4ccccc24)CCC(C)(C)O3)cc1` ?
# output 98.1

====

System: OVCAR-3 ovarian
Test: NCI tumour cell line growth inhibition, 48 h; in the data active = GI50 below about 0.43 µM; inactive = the rest
Classes to choose from: label 1 (active), label 0 (inactive)

Known results for compounds:
C/C(=N\NC(=S)N1CC2CCC(CC2)C1)c1ccccn1 :: label 1
[F][Sn]([F])([c]1ccccc1)[c]1ccccc1 :: label 0
O=C([CH-]C(=O)c1ccccc1)c1ccccc1.O=C([CH-]C(=O)c1ccccc1)c1ccccc1.[O]=[U+2]=[O] :: label 0
CC[C@@]1(O)C(=O)OCc2c1cc1n(c2=O)Cc2c-1nc1cc(F)c(C)c3c1c2[C@@H](N)CC3 :: label 1

# input Each compound tested received a call. Report the one for `CN1CCN(c2ccc(Nc3ncc4cc(C#N)c(=O)n(C5CCCC5)c4n3)cc2)CC1` .
# output label 0

====

Test system: MALME-3M melanoma
Test: NCI tumour cell line growth inhibition, 48 h; in the data active = GI50 below about 0.43 µM; inactive = the rest
Output constraint: value belongs to YES (active), NO (inactive)

Field: example entries. Status: answers known.
COc1ccc2c(Oc3ccc(NC(=O)c4c(C)n(CC(C)(C)O)n(-c5ccccc5)c4=O)nc3)ccnc2c1 :: NO
C[C@H]1CCC/C=C/[C@@H]2C[C@H](O)C[C@H]2[C@H](O)[C@@H](SCC(O)CO)CC(=O)O1 (some centres undefined) :: NO

# input Could you kindly confirm the outcome this assay logged for `O=C(Nc1ccc(Cl)c(Cl)c1)Nc1ccccc1O` ?
# output NO

# input Fill in: this test's call for CCN1C(=O)N(CC)C2Nn3c(s/c(=C4\C(=O)N(C)c5ccccc54)c3=O)=NC21 (centres undefined) is ___
# output NO

# input What did the test return for `C[C@]12CC[C@@H]3c4ccc(O)c([N+](=O)[O-])c4CC[C@H]3[C@@H]1CC[C@@H]2NS(=O)(=O)c1cccc(Br)c1` ?
# output NO

# input Name the outcome recorded for `N.N.NCCCCCCCCCN.O=C([O-])CC(=O)[O-].O=C([O-])CC(=O)[O-].[Pt+4].[Pt+4]` in the assay.
# output NO

# input Given `O=C(N/N=C/c1c(Cl)cccc1Cl)c1ccc(C(F)(F)F)nc1Nc1cccc(C(F)(F)F)c1` , state the outcome it received in this test.
# output NO

# input Given `c1csc(-c2c3ccc(=[N+]4CCCCC4)cc-3oc3cc(N4CCCCC4)ccc23)c1` , state the outcome it received in this test.
# output YES

# input Dear colleague, could you share the recorded outcome for `O=C(N/N=C/c1ccc([N+](=O)[O-])o1)c1ccc(O)cc1` when you have a moment?
# output NO

Values were extracted from PubChem BioAssay (NCI).
